Values from patent US4160829A

# System: Strep.haem. A 266
# testProtocol: agar serial dilution test
# Type: cell-based, Streptococcus haemolyticus
# cond: Streptococcus; agar serial dilution, 24 hours, 37° C.; read-out: minimal inhibitory concentration (MIC)
experimentalEndpoint: MIC

molecule="CC1=C(C(=O)O)N2C(=O)[C@@H](NC(=O)Cc3nc(-c4c(Cl)cccc4Cl)no3)[C@H]2SC1 [Example 11E]" reportedresult="0.25 µg/mL"
molecule=CC(=O)OCC1=C(C(=O)O)N2C(=O)[C@@H](NC(=O)Cc3nc(C)no3)[C@H]2SC1 reportedresult="0.03 µg/mL"
molecule=COCc1noc(CC(=O)N[C@@H]2C(=O)N3C(C(=O)O)=C(COC(C)=O)CS[C@H]23)n1 reportedresult="0.12 µg/mL"
molecule="CC(=O)OCC1=C(C(=O)O)N2C(=O)[C@@H](NC(=O)Cc3ccccc3)[C@H]2SC1 [Cephalosporin G, reference compound]" reportedresult="0.03 µg/mL"
molecule="CC1(C)S[C@@H]2[C@H](NC(=O)[C@H](N)c3ccccc3)C(=O)N2[C@H]1C(=O)O [Ampicillin, reference compound]" reportedresult="< 0.015 µg/mL"
molecule="CCc1noc(CC(=O)N[C@@H]2C(=O)N3C(C(=O)O)=C(COC(C)=O)CS[C@H]23)n1 [Example 11L]" reportedresult="0.25 µg/mL"
molecule="CCc1noc(C(C)C(=O)N[C@@H]2C(=O)N3[C@@H]2SC(C)(C)[C@@H]3C(=O)O)n1 (stereo partly shown) [Example 11M]" reportedresult="0.5 µg/mL"
